B1: RTP4 (parent)
chain: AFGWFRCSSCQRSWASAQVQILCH

variants of: B1; assay: protein stability index of a GFP-peptide fusion (GPS, HEK-293T) (PSI 1-6); higher = more stable; conditions: c terminus: a fixed tail appended;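 note: lentivirally expressed fusions sorted by FACS into six bins by GFP to DsRed ratio, PSI derived from sequencing read proportions per bin multiplied by bin number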
Class field: derived from protein stability index; ranges low-valued (below 2), mid-valued (2 to below 3), high-valued (3 or more)

Enquiry: Lab log: R12K — assign protein stability index category
Return: low-valued

Enquiry: Moving on to S9I
Return: mid-valued

Enquiry: Moving on to F5K
Return: high-valued

Enquiry: Moving on to S8P
Return: mid-valued

Enquiry: Moving on to A15E
Return: low-valued

Enquiry: Moving on to C23H
Return: low-valued

Enquiry: Moving on to S16K
Return: mid-valued

Enquiry: Moving on to Q18V
Return: high-valued

Enquiry: Moving on to C23F
Return: mid-valued

Enquiry: Moving on to S13Y
Return: high-valued

Enquiry: Moving on to H24A
Return: low-valued

Enquiry: Moving on to V19M
Return: high-valued

Enquiry: Moving on to A15W
Return: mid-valued

Enquiry: Moving on to A1L
Return: mid-valued

Enquiry: Moving on to S9L
Return: mid-valued

Enquiry: Moving on to S13L
Return: low-valued

Enquiry: Moving on to R6L
Return: high-valued

Enquiry: Moving on to V19F
Return: high-valued

Enquiry: Moving on to A1H
Return: low-valued
